- system tested: Drosophila Smo CRD (Smoothened) (Drosophila melanogaster)
- Sequence (P91682 85-202): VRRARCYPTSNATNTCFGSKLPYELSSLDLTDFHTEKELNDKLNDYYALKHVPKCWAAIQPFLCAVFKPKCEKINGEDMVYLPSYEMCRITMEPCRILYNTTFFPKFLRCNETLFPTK
observation type: Kd (µM)

molecule	observation type	reported measurement
CCCC1O[C@@H]2C[C@H]3[C@@H]4CCC5=CC(=O)C=C[C@]5(C)[C@H]4[C@@H](O)C[C@]3(C)[C@]2(C(=O)CO)O1 (stereo partly shown) [Bud, budesonide]	Kd	120

----------
Sequence of the target: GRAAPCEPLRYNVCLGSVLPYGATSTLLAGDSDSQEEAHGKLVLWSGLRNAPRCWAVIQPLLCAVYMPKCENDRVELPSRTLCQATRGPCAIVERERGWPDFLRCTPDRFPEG
pKd: −log10 of the molar value.

compound	pKd
CCCC1O[C@@H]2C[C@H]3[C@@H]4CCC5=CC(=O)C=C[C@]5(C)[C@H]4[C@@H](O)C[C@]3(C)[C@]2(C(=O)CO)O1 (stereo partly shown) [Bud, budesonide]	4.28
